experimentalSystem: HIV reverse transcriptase (Human immunodeficiency virus type 1 group M subtype B, UniProt P03366)
Construct: performed for the enzyme HIV reverse transcriptase (GE Healthcare, 30 U/4 stock solution); purchased GE Healthcare
measurementDescription: Steady-state kinetic assay of Asp-dNMP incorporation by HIV RT (Example 4)
Format: biochemical, HIV-1
experimentalParameters: 37° C.; P1-T2, P1-T4 or P2T4
Procedure: To determine the kinetic parameters of the incorporation of Asp-dGMP (9), Asp-dTMP (10), Asp-dCMP (11) or dGTP, dTTP, dCTP, a steady-state kinetic assay was carried out. The reaction mixture was started by adding HIV reverse transcriptase to P1-T2, P1-T4 or P2T4 complex, buffer and Asp-dGMP, Asp-dTMP, Asp-dCMP or dGTP, dTTP, dCTP. […] The kinetic constants Vmax and KM were determined from a Michaëlis-Menten plot, using GraphPad Prism version 3.02. […]
Quick list: Vmax per entry.
measurementLabel: Vmax (pmolmin^−1U)

compound: Nc1nc2c(ncn2[C@H]2C[C@H](O)[C@@H](COP(=O)(O)N[C@@H](CC(=O)O)C(=O)O)O2)c(=O)[nH]1 [Compound 9]
measurementLabel: Vmax
numericValue: 2.143
--
compound: Cc1cn([C@H]2C[C@H](O)[C@@H](COP(=O)(O)N[C@@H](CC(=O)O)C(=O)O)O2)c(=O)[nH]c1=O [Compound 10]
measurementLabel: Vmax
numericValue: 2.33
--
compound: Nc1ccn([C@H]2C[C@H](O)[C@@H](COP(=O)(O)OP(=O)(O)OP(=O)(O)O)O2)c(=O)n1 [dCTP, reference compound]
measurementLabel: Vmax
numericValue: 5.62
--
compound: Nc1ccn([C@H]2C[C@H](O)[C@@H](COP(=O)(O)N[C@@H](CC(=O)O)C(=O)O)O2)c(=O)n1 [Compound 11]
measurementLabel: Vmax
numericValue: 0.59
--
compound: Nc1nc2c(ncn2[C@H]2C[C@H](O)[C@@H](COP(=O)(O)OP(=O)(O)OP(=O)(O)O)O2)c(=O)[nH]1 [dGTP, reference compound]
measurementLabel: Vmax
numericValue: 28.81
--
compound: Cc1cn([C@H]2C[C@H](O)[C@@H](COP(=O)(O)OP(=O)(O)OP(=O)(O)O)O2)c(=O)[nH]c1=O [dTTP, reference compound]
measurementLabel: Vmax
numericValue: 30.82

// data source = patent US8242087B2
